Reported values: IC50 for JMJD2A (Homo sapiens (Human), UniProt O75164), one per item.

Completed entries (count: 5):
{"columns": ["compound", "experimental-system", "IC50"],
 "data": [
  ["O=C(O)c1ccnc(-n2nccc2OCc2ccc(F)cc2OCc2ccc(F)cc2)c1 [Example 118]", "JMJD2A (Homo sapiens (Human), UniProt O75164)", "0.1 to 1 µM"],
  ["CC(c1ccccc1)c1cc(O)n(-c2cc(C(=O)O)ccn2)n1 (stereo not shown) [Example 162]", "JMJD2A (Homo sapiens (Human), UniProt O75164)", "> 10 µM"],
  ["O=C(O)c1ccnc(-n2nc(-c3cccc(Cl)c3)cc2O)c1 [Example 159]", "JMJD2A (Homo sapiens (Human), UniProt O75164)", "> 10 µM"],
  ["O=C(O)c1ccnc(-n2nccc2-c2cccc(O)c2)c1 [Example 17]", "JMJD2A (Homo sapiens (Human), UniProt O75164)", "0.1 to 1 µM"],
  ["O=C(O)c1ccnc(-n2nccc2OCc2ccc(Cl)c(OCC3CC3)c2)c1 [Example 140]", "JMJD2A (Homo sapiens (Human), UniProt O75164)", "0.1 to 1 µM"]
]}

Q: Name the recorded IC50 for CC(C)COc1cc(Cl)ccc1COc1ccnn1-c1cc(C(=O)O)ccn1 [Example 112] .
Result: 1 to 10 µM

Q: Which IC50 value is on record for O=C(O)c1ccnc(-n2nc(C3CC3)cc2O)c1 [Example 2] ?
Result: 0.1 to 1 µM

Source: patent US9604961B2
